# Tested on: ERK1
# Construct: gene MAPK3
# Cond: concentration: 1 μM, replicates: in singlicate; n = 1;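 note: KINOMEscan kinase panel screen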
Assay endpoint: %Inh (%)

Smiles record | Target or test system | Assay endpoint | Unit symbol | Recorded measurement
O=C(O)C(F)(F)F.O=c1[nH]ccc2nc(N[C@@H]3CCNC3)nc(Nc3cc(Cl)cc(Cl)c3)c12 | ERK1 | %Inh | % | 41
COC(=O)Nc1nc2cc(Oc3ccc(NC(=O)Nc4cccc(SC)c4)cc3)ccc2[nH]1.Cl | ERK1 | %Inh | % | 0
COC(=O)Nc1nc2ccc(Oc3ccc(NC(=O)Nc4cc(C(F)(F)F)ccc4F)cc3)cc2[nH]1.Cl | ERK1 | %Inh | % | 0
N#Cc1cnc2cc(-c3cnc(CNCCN4CCOCC4)s3)ccc2c1Nc1ccc(Oc2ccccc2)cc1 | ERK1 | %Inh | % | 0

----------
Measured %Inh, listed per entry.
# System: RSK4(Kin.Dom.2-C-terminal)
# Construct: gene RPS6KA6
# Cond: concentration: 1 μM, replicates: in singlicate; n = 1
Assay endpoint: %Inh (%)

Molecule | Unit symbol | Recorded measurement
Cc1cccc(Nc2nc(NCCN)ncc2C(N)=O)c1 | % | 23
COc1cc(Nc2nccc(N3CCC(NC(=O)Nc4ccc5c(c4)OCO5)C3)n2)cc(OC)c1OC (centres unmarked) | % | 14
COc1ccc(C)c(Nc2ccnc(Nc3ccc(-c4cnc[nH]4)cc3)n2)c1.Cl | % | 0
O=C(Nc1n[nH]c2nc(-c3ccccc3O)ccc12)C1CC1 | % | 28
Cc1cc(-c2ccnc(Nc3cccc(C#N)c3)n2)cc(C)c1O | % | 0
COC(=O)Nc1nc2ccc(Oc3ccc(NC(=O)Nc4cc(C(F)(F)F)ccc4F)cc3)cc2[nH]1.Cl | % | 16
O=C(Nc1c(F)cccc1F)c1cc(C(=O)c2ccccc2F)c[nH]1 | % | 0
Cl.N#CCc1ccc(Nc2nccc(Nc3ccc(Oc4ccccc4)cc3)n2)cc1 | % | 0
CCn1c(-c2nonc2N)nc2c(-c3ccccc3)ncc(OCCCN)c21.O=C(O)C(F)(F)F.O=C(O)C(F)(F)F | % | 90.3
CC(C)c1nc(-c2cccc(NS(=O)(=O)c3c(F)cccc3F)c2)c(-c2ccnc(Nc3ccc(N4CCOCC4)nc3)n2)s1.Cl | % | 19
COc1cccc(NC(=O)NCCNc2ccnc(Nc3ccc(F)cc3)n2)c1 | % | 0
COc1cccc(-c2nc(-c3ccccc3)[nH]c2-c2ccncc2)c1 | % | 63
COc1cccc(CC(=O)N2CCc3cc(-c4cn(C)c5ncnc(N)c45)ccc32)c1 | % | 29
O=C(Nc1n[nH]c2nc(-c3ccccc3)ccc12)C1CC1 | % | 1
COC(=O)Nc1nc2cc(Oc3ccc(NC(=O)Nc4cccc(SC)c4)cc3)ccc2[nH]1.Cl | % | 0
Cc1cccc(Nc2nc(N[C@H]3CCCC[C@H]3N)ncc2C(N)=O)c1.Cl | % | 30
Cc1ccc(NC(=O)c2ccc(Cl)c(Cl)c2)cc1-c1ccc(C(=O)Nc2ccncc2)cc1 | % | 23

----------
Measured %Inh, listed per entry.
# Test system: NEK3
# Cond: concentration: 1 μM, replicates: in singlicate; n = 1
Assay endpoint: %Inh (%)

Molecule | Assay endpoint | Recorded measurement
O=C(O)C(F)(F)F.O=c1[nH]ccc2nc(N[C@@H]3CCNC3)nc(Nc3cc(Cl)cc(Cl)c3)c12 | %Inh | 23
CN(c1ccc(F)c(NC(=O)c2cccc(OC(C)(C)C#N)c2Cl)c1)c1ccc2nc(NC(=O)C3CC3)sc2n1 | %Inh | 7
Cc1ccc(NC(=O)c2cccc(N3CCCCC3)c2)cc1-c1ccc(C(=O)NCC2CC2)cc1 | %Inh | 11
Cc1ccc(-c2ccc3occ(-c4ccc(S(C)=O)cc4)c3c2)nn1 (stereo not shown) | %Inh | 30
Cc1nn2c(=O)cc(N3CCO[C@H](C)C3)nc2n1Cc1cccc(Cl)c1Cl | %Inh | 0
NCCC(NC(=O)c1cc(Br)c(-c2ccnc3[nH]ccc23)s1)c1ccccc1.O=C(O)C(F)(F)F.O=C(O)C(F)(F)F (stereo not shown) | %Inh | 0
COc1cc(Nc2ccnc3cc(-c4ccncc4)ccc23)cc(OC)c1OC.Cl | %Inh | 0

----------
# Test system: CAMK1G
# Cond: concentration: 1 μM, replicates: in singlicate; n = 1
Measured %Inh, listed per entry.

Molecule | %Inh / %
Cc1cccc(Nc2nc(NCCN)ncc2C(N)=O)c1 | 23
N#Cc1cnc2cc(-c3cnc(CNCCN4CCOCC4)s3)ccc2c1Nc1ccc(Oc2ccccc2)cc1 | 24
O=C(Nc1c(F)cccc1F)c1cc(C(=O)c2ccccc2F)c[nH]1 | 6
Cc1nn2c(=O)cc(N3CCO[C@H](C)C3)nc2n1Cc1cccc(Cl)c1Cl | 0
Nc1ncc(-c2ccc3nccc(-c4ccncc4)c3c2)cc1S(=O)(=O)N1CCCCC1 | 2
Cc1cc(-c2ccnc(Nc3cccc(C#N)c3)n2)cc(C)c1O | 22
Cl.N#CCc1ccc(Nc2nccc(Nc3ccc(Oc4ccccc4)cc3)n2)cc1 | 0
CCNC(=O)/C=C/c1n[nH]c2cc(Sc3ccccc3C(=O)NC)ccc12 | 20
Cc1ccc(O)cc1Nc1ccnc2ccc(C(C)(C)C)cc12 | 0
Cc1ccc(-c2ccc3occ(-c4ccc(S(C)=O)cc4)c3c2)nn1 (centres unmarked) | 7
Fc1cc(Cl)ccc1Nc1ccnc2cc(-c3ccc(CN4CCSCC4)o3)ccc12 | 0
CN(c1ccc(NC(=O)N2CCN(CCCN3CCOCC3)CC2)cc1)c1ccnc(Nc2ccc(CS(C)(=O)=O)cc2)n1.Cl | 0
Cl.O=C(Nc1ccc(Oc2ccc3[nH]c(NC(=O)c4ccco4)nc3c2)cc1)Nc1cc(C(F)(F)F)ccc1F | 0
Fc1cc(Cl)ccc1Nc1ccnc2cc(-c3ccc(CN4CCOCC4)o3)ccc12 | 0
Cc1ccc(C)c(NC(=O)Nc2ccc(C)c(-c3ccc(C(=O)Nc4ccncc4)cc3)c2)c1 | 0
CNc1nccc(-c2ccc3c(N)n[nH]c3c2)n1 | 22
O=C(Nc1n[nH]c2nc(-c3ccccc3O)ccc12)C1CC1 | 0
Nc1ncc(-c2cn[nH]c2)c2scc(-c3ccc4c(c3)CCN4C(=O)Cc3ccccc3)c12 | 19
NCCC(NC(=O)c1cc(Br)c(-c2ccnc3[nH]ccc23)s1)c1ccccc1.O=C(O)C(F)(F)F.O=C(O)C(F)(F)F (centres unmarked) | 21
Cn1cc(-c2cnc(N)c3c(-c4ccc5c(c4)CCN5C(=O)Cc4ccccc4)csc23)cn1 | 0
COc1ccc(C2=C(Nc3cccc(O)c3)C(=O)NC2=O)cc1 | 26
COC(=O)Nc1nc2ccc(Oc3ccc(CC(=O)Nc4cc(C(F)(F)F)ccc4F)cc3)cc2[nH]1 | 0
CN(C)CCOc1ccc(-c2cc(-c3ccc(Cl)c(O)c3)c(-c3ccncc3)[nH]2)cc1.Cl.Cl | 0
CC(=O)Nc1cn2nc(Oc3cccc(NC(=O)c4cccc(C(F)(F)F)c4)c3)ccc2n1 | 0
CC(C)NCC(Cc1ccccc1)NC(=O)c1cc(Br)c(-c2ccnc3[nH]ccc23)s1.Cl.Cl (centres unmarked) | 0
COc1cccc(CC(=O)N2CCc3cc(-c4cn(C)c5ncnc(N)c45)ccc32)c1 | 20
COC(=O)Nc1nc2cc(Oc3ccc(NC(=O)Nc4cccc(SC)c4)cc3)ccc2[nH]1.Cl | 0
Cc1cccc(Nc2nc(N[C@H]3CCCC[C@H]3N)ncc2C(N)=O)c1.Cl | 23
Cn1cc(-c2ccc3c(c2)CCN3C(=O)Cc2cc(F)cc(C(F)(F)F)c2)c2c(N)ncnc21 | 0

----------
# Tested on: ANKK1
# Cond: concentration: 1 μM, replicates: in singlicate; n = 1
Measured %Inh, listed per entry.

Molecule | %Inh [%]
Cc1cccc(Nc2nc(N[C@H]3CCCC[C@H]3N)ncc2C(N)=O)c1.Cl | 95.7
COc1cccc2c(-c3ccncc3)c(-c3ccc(F)cc3)nn12 | 11
O=C(O)C(F)(F)F.O=c1[nH]ccc2nc(N[C@@H]3CCNC3)nc(Nc3ccc4c(c3)S(=O)(=O)CC4)c12 | 97.4
O=C(Nc1n[nH]c2nc(-c3ccccc3O)ccc12)C1CC1 | 0
Cc1ccc(NC(=O)c2ccc(Cl)c(Cl)c2)cc1-c1ccc(C(=O)Nc2ccncc2)cc1 | 18
COC(=O)Nc1nc2cc(Oc3ccc(NC(=O)Nc4cccc(SC)c4)cc3)ccc2[nH]1.Cl | 10
c1ccc(Oc2ccc(Nc3ccnc4cc(-c5ccc(CN6CCCCC6)o5)ccc34)cc2)nc1 | 9
CN1CCN(Cc2ccc(NC(=O)Nc3ccc(N(C)c4ccnc(Nc5ccc(CS(C)(=O)=O)cc5)n4)cc3)cc2)CC1.Cl | 80
COc1ccc(NC(=O)c2ccoc2)cc1-c1ccc(C(=O)NCC2CC2)cc1 | 7
CC(C)(C)c1ccc(C(=O)Nc2cn3cc(-n4ccnc4)ccc3n2)cc1 | 82
O=C(Nc1n[nH]c2cc(-c3cccs3)ccc12)C1CC1 | 45
O=C(O)C(F)(F)F.O=c1[nH]ccc2nc(N[C@@H]3CCNC3)nc(Nc3cc(Cl)cc(Cl)c3)c12 | 97.1
NCCC(NC(=O)c1cc(Br)c(-c2ccnc3[nH]ccc23)s1)c1ccccc1.O=C(O)C(F)(F)F.O=C(O)C(F)(F)F (stereo not shown) | 0
CS(=O)(=O)c1cccc(CNc2nc(Nc3ccc4c(c3)CCC(=O)N4)ncc2C(F)(F)F)c1 | 3
Cc1ccccc1CC(=O)N1CCc2cc(-c3cn(C)c4ncnc(N)c34)ccc21 | 0
COc1cccc(C2=C(Nc3cccc(O)c3)C(=O)NC2=O)c1 | 0
Cc1cc(-c2ccnc(Nc3cccc(C#N)c3)n2)cc(C)c1O | 9
Cc1ccc(Nc2ccnc(Nc3ccc(C)c(F)c3)n2)cc1O.Cl | 0
O=C(Nc1n[nH]c2nc(-c3ccccc3)ccc12)C1CC1 | 63
CNc1nccc(-c2ccc3c(N)n[nH]c3c2)n1 | 33
Cn1cc(-c2ccc3c(c2)CCN3C(=O)Cc2cc(F)cc(C(F)(F)F)c2)c2c(N)ncnc21 | 25
COc1cc(Nc2nccc(N3CCC(NC(=O)Nc4ccc5c(c4)OCO5)C3)n2)cc(OC)c1OC (stereo not shown) | 36
O=C(Nc1n[nH]c2nc(-c3cccc(O)c3)ccc12)C1CC1 | 0
CN(c1ccc2c(c1)nc(NCc1ccccc1)n2C)c1ccnc(Nc2ccc(CS(C)(=O)=O)cc2)n1.Cl | 0
CCn1cnc2c(NCc3ccccc3)ncnc21 | 0
Cc1ccc(-c2ccc3occ(-c4ccc(S(C)=O)cc4)c3c2)nn1 (stereo not shown) | 0
Cl.Cl.NCC(NC(=O)c1cc(-c2cccnc2)c(-c2ccnc3[nH]ccc23)s1)c1ccccc1 (stereo not shown) | 0
COC(=O)Nc1nc2ccc(Oc3ccc(CC(=O)Nc4cc(C(F)(F)F)ccc4F)cc3)cc2[nH]1 | 1
Fc1cc(Cl)ccc1Nc1ccnc2cc(-c3ccc(CN4CCSCC4)o3)ccc12 | 14
CC(C)c1nc(-c2cccc(NS(=O)(=O)c3c(F)cccc3F)c2)c(-c2ccnc(Nc3ccc(N4CCOCC4)nc3)n2)s1.Cl | 5
CCNC(=O)/C=C/c1n[nH]c2cc(Sc3ccccc3C(=O)NC)ccc12 | 5
CN(c1ccc(NC(=O)Nc2cccc(Cl)c2)cc1)c1ccnc(N)n1.Cl | 0
COc1cccc(CC(=O)N2CCc3cc(-c4cn(C)c5ncnc(N)c45)ccc32)c1 | 6
Cc1ccc(C)c(NC(=O)Nc2ccc(C)c(-c3ccc(C(=O)Nc4ccncc4)cc3)c2)c1 | 0

The reported numbers originate from paper PMC5540273.
